testProtocol: Pharmacokinetic evaluation after intravenous or gavage administration to rats
Assay type: in vivo, SD rats
recordedConditions: SD, rat, in vivo; rats, iv, 2 mg/kg; read-out: MRTINF
quantityKind: MRT inf (min)
Hi! Could you send only the number? It should be in min, unit omitted.

Determine from records and report MRT inf for Cc1ccc(-n2nccn2)c(C(=O)N2CCN(c3nc4cc(Cl)ccc4o3)CC[C@H]2C)c1 [suvorexant, reference compound]
42.5

* * *

testProtocol: Pharmacokinetic evaluation after intravenous or gavage administration to dogs
Type: in vivo, Beagle dogs
recordedConditions: beagle, dog, in vivo; dogs, po, 5 mg/kg; read-out: Cmax
quantityKind: Cmax (ng/mL)
Hi! Could you send only the number? It should be in ng/mL, unit omitted.

Determine from records and report Cmax for Cc1ccc(-n2nccn2)c(C(=O)N2CCN(c3nc4cc(Cl)ccc4o3)CC[C@H]2C)c1 [suvorexant, reference compound]
1640
